Data credit: paper PMC9959130

test: Metabolic studies in BALB/c mice (intact radiopeptide by radio-HPLC); type: in vivo; settings: i.v., 2 nmol, 10 min p.i., two animals per peptide
Where a SMILES comes first, the peptide text is derived from it. [ ]: non-standard residue; d: D form. The star is where a group is joined. DOTA = O=C(O)CN1CCN(CC(=O)O)CCN(CC(=O)*)CCN(CC(=O)O)CC1; 1Nal = N[C@@H](Cc1cccc2ccccc12)C(=O)O; NMeNle = CCCC[C@H](NC)C(=O)O
QUANTITY: Intact radiopeptide in blood (%)
Note: unit % is implicit; provide only the numeric part.

Some solved entries appear below for comparison.
1. CCCC[C@@H](C(=O)N[C@@H](CC(=O)O)C(=O)N[C@@H](Cc1cccc2ccccc12)C(N)=O)N(C)C(=O)[C@H](Cc1c[nH]c2ccccc12)NC(=O)CNC(=O)[C@H](Cc1ccc(O)cc1)NC(=O)[C@H](C)NC(=O)[C@@H](CCCCN)NC(=O)CN1CCN(CC(=O)O)CCN(CC(=O)O)CCN(CC(=O)O)CC1 [[^111In]In-DOTA-[DLys^1]MGS5] [metal not drawn] ({DOTA}-[dK]AYGW[NMeNle]D[1Nal]-NH2) = 93.9
2. CCCC[C@@H](C(=O)N[C@@H](CC(=O)O)C(=O)N[C@@H](Cc1cccc2ccccc12)C(=O)NC)N(C)C(=O)[C@H](Cc1c[nH]c2ccccc12)NC(=O)CNC(=O)[C@H](Cc1ccc(O)cc1)NC(=O)[C@H](C)NC(=O)[C@@H](CCC(=O)O)NC(=O)CN1CCN(CC(=O)O)CCN(CC(=O)O)CCN(CC(=O)O)CC1 [[^111In]In-DOTA-MGS5[NHCH3]] [metal not drawn] = 71.7
3. CCCC[C@@H](C(=O)N[C@@H](CC(=O)O)C(=O)N(C)[C@@H](Cc1cccc2ccccc12)C(N)=O)N(C)C(=O)[C@H](Cc1c[nH]c2ccccc12)NC(=O)CNC(=O)[C@H](Cc1ccc(O)cc1)NC(=O)[C@H](C)NC(=O)[C@@H](CCC(=O)O)NC(=O)CN1CCN(CC(=O)O)CCN(CC(=O)O)CCN(CC(=O)O)CC1 [[^111In]In-DOTA-[(N-Me)1Nal^8]MGS5] [metal not drawn] = 98.4

// next item, Intact radiopeptide in blood requested
May I ask what Intact radiopeptide in blood has been recorded for CCCC[C@@H](C(=O)N[C@@H](CC(=O)O)C(=O)N[C@@H](Cc1ccc2ccccc2c1)C(N)=O)N(C)C(=O)[C@H](Cc1c[nH]c2ccccc12)NC(=O)CNC(=O)[C@H](Cc1ccc(O)cc1)NC(=O)[C@H](C)NC(=O)[C@@H](CCC(=O)O)NC(=O)CN1CCN(CC(=O)O)CCN(CC(=O)O)CCN(CC(=O)O)CC1 [[^111In]In-DOTA-[2Nal^8]MGS5] [metal not drawn] ? 88.4

====

assay: Biodistribution in BALB/c nude mice bearing A431-CCK2R/A431-mock xenografts; assay type: in vivo; settings: female, athymic BALB/c nude, mouse, A431-CCK2R xenograft / stomach, iv, 20 pmol, total radioactivity, A431-CCK2R xenograft, BALB/c nude mice, 20 pmol, gallium-68, 1 h p.i., mean ± SD n = 4; read-out: tumor-to-organ ratio: stomach
QUANTITY: tissue to tissue ratio at 1 h
Lab note: jot the number down without any unit.

Sample CCCC[C@@H](C(=O)N[C@@H](CC(=O)O)C(=O)N(C)[C@@H](Cc1cccc2ccccc12)C(N)=O)N(C)C(=O)[C@H](Cc1c[nH]c2ccccc12)NC(=O)CNC(=O)[C@H](Cc1ccc(O)cc1)NC(=O)[C@H](C)NC(=O)[C@@H](CCC(=O)O)NC(=O)CN1CCN(CC(=O)O)CCN(CC(=O)O)CCN(CC(=O)O)CC1 [[^68Ga]Ga-DOTA-[(N-Me)1Nal^8]MGS5, metal not drawn] — what was its tissue to tissue ratio at 1 h? 10.2
